test summary: qHTS Assay for Modulators of miRNAs and/or Inhibitors of miR-21; note: potency is the fitted concentration of half-maximal effect; nearly all actives have a fitted effect of over 55% in size
test conditions: HeLa miR-21-FLuc reporter, luciferase luminescence, 48 h; actives lower the signal
About 3,300 (0.97%) of roughly 340,000 compounds were called active. Not shown: some 9% with an inconclusive outcome. This is one part of the list.
# reported Potency; entries follow
measure name: Potency

Cc1ccsc1C(=O)NN=C1CCCCCC1 :: 3.69 µM (active)
O=C(O)c1ccc(/C=N/Nc2cccc(C(F)(F)F)c2)cc1 :: 7.36 µM (active)
CCC(C)(C)C1CCc2[nH]nc(C(=O)N/N=C(\C)c3ccco3)c2C1 (stereo unspecified) :: 2.61 µM (active)
O=C(NN=C1CCCC1)c1cccs1 :: 1.65 µM (active)
CNc1nn(-c2cccc(Cl)c2)nc1N :: 4.47 µM (active)
O=C(CNC(=O)c1ccccc1F)N/N=C/c1ccc2c(c1)OCO2 :: 18.5 µM (active)
NNc1nc(-c2ccccc2)nc2sc3c(c12)CCCC3 :: 0.464 µM (active)
Cc1ccc(/C(N)=N/OC(=O)c2ccc(C)cc2Cl)cc1 :: 0.261 µM (active)
Cc1cc(C)n2cc(COc3ccc4ccccc4c3)nc2n1 :: 1.17 µM (active)
Cc1ccc(S(=O)(=O)Oc2cccc(/C=N/Nc3ccc(C(=O)O)cc3)c2)cc1 :: 13.1 µM (active)
FC(F)(F)c1cccc(N/N=C/c2ccccc2)c1 :: 6.56 µM (active)
CCCCN(C(=O)Cc1cccs1)c1nnc(-c2cccnc2)s1 :: 14.7 µM (active)
O=C(COc1ccc(Cl)cc1Cl)NCc1ccco1 :: 16.5 µM (active)
O=C(c1ccccc1)c1cnc(-c2ccc(Cl)cc2)s1 :: 0.464 µM (active)
Cc1cc(C)n2c(Br)c(CSc3nc4ccccc4s3)nc2n1 :: 4.14 µM (active)
c1nc(NCCN2CCOCC2)c2c3c(sc2n1)CCCCC3 :: 16.5 µM (active)
O/N=C/c1ccc(OCc2ccccc2)c(Cl)c1 :: 2.07 µM (active)
COc1ccccc1C(=O)Nc1ccc2c(c1)OCO2 :: 9.27 µM (active)
O=C(COc1ccccc1F)N/N=C1\CCCc2ccccc21 :: 3.29 µM (active)
NC(=O)c1ccccc1N/C=C/C(=O)c1cccs1 :: 0.521 µM (active)
COc1cccc(-c2nc(=S)c3c(o2)CCCC3)c1 :: 1.85 µM (active)
